# IC50 annotations
System: BEN;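 note: growth inhibition of the BEN cell line, read out with a cell viability assay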
assay_remarks: cells
Format: functional, cell-based, Homo sapiens
study_conditions: Homo sapiens, BEN
Description: SANGER: Inhibition of human BEN cell growth in a cell viability assay.
Give the quantity in µM, number only.

Nc1ccn([C@@H]2O[C@H](CO)[C@@H](O)C2(F)F)c(=O)n1	0.238

Turning now to a further record.
If you can, please state the reported IC50 value of Cc1cc([N+](=O)[O-])ccc1NS(=O)(=O)c1cc(Cl)ccc1Cl .
2.28

----------
Tested on: ES1
assay_remarks: cells
Type: functional, cell-based, Homo sapiens
study_conditions: Homo sapiens, ES1
Description: SANGER: Inhibition of human ES1 cell growth in a cell viability assay.
Where a name gives a salt, the structure may show the parent alone.
reported_property: IC50

Give the measured IC50 of COc1cc2ncn(-c3cc(OCc4ccccc4S(C)(=O)=O)c(C#N)s3)c2cc1OC [GSK-319347A] .
> 5000 nM

Let us now turn to COc1cc(N2CCN(C)CC2)ccc1Nc1ncc2c(n1)N(C)c1ccccc1C(=O)N2C
> 8000 nM

# repeat for COC1=CC(c2cc3ccccc3[nH]2)=N/C1=C\c1[nH]c(C)cc1C [OBATOCLAX MESYLATE]
48.9 nM

----------
Test system: LB771-HNC
assay_remarks: cells
Type: functional, cell-based, Homo sapiens
study_conditions: Homo sapiens, LB771-HNC
Description: SANGER: Inhibition of human LB771-HNC cell growth in a cell viability assay.
pIC50: −log10 of the molar value.
The entries below come with measured pIC50 values attached.

// solved cases for pIC50 follow
Cc1ccc(-c2c(C(=O)CCl)n(CCCO)c3ncnc(N)c23)cc1	< 5.40
COc1cc2ncn(-c3cc(OCc4ccccc4C(F)(F)F)c(C(N)=O)s3)c2cc1OC [GW843682X]	7.22
COc1cc2c(Nc3ccc(NC(=O)c4ccccc4)cc3)ncnc2cc1OCCCN1CCOCC1	< 5.40
N#Cc1c(O)c2c(-c3ccc(-c4ccccc4O)cc3)csc2[nH]c1=O	< 5.99

Okay, now this compound:
What value of measured pIC50 is listed for CCC/C=C/C=C/C(=O)O[C@H]1/C(=C/C(=O)OC)C[C@H]2C[C@H]([C@@H](C)O)OC(=O)C[C@H](O)C[C@@H]3C[C@H](OC(C)=O)C(C)(C)[C@](O)(C[C@@H]4C/C(=C/C(=O)OC)C[C@H](/C=C/C(C)(C)[C@]1(O)O2)O4)O3 [BRYOSTATIN 1] ?
< 8.10

----------
Tested on: MZ7-mel
assay_remarks: cells
Assay type: functional, cell-based, Homo sapiens
study_conditions: Homo sapiens, MZ7-mel
Description: SANGER: Inhibition of human MZ7-mel cell growth in a cell viability assay.
reported_property: pIC50
The scale used: pIC50 is minus the common logarithm of the concentration in molar units.

Cc1cc([N+](=O)[O-])ccc1NS(=O)(=O)c1cc(Cl)ccc1Cl	5.47

Write down the reported pIC50 of COc1cc(N2CCN(C)CC2)ccc1Nc1ncc2c(n1)N(C)c1ccccc1C(=O)N2C , test system: MZ7-mel.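 Note: growth inhibition of human MZ7-mel cells, measured by a cell viability assay.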
5.12

----------
Tested on: YH-13;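 note: cell viability readout of growth suppression in the human YH-13 cell line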
assay_remarks: cells
Format: functional, cell-based, Homo sapiens
study_conditions: Homo sapiens, YH-13
Description: SANGER: Inhibition of human YH-13 cell growth in a cell viability assay.
pIC50: −log10 of the molar value.
Each item that follows carries a reported pIC50.

Use these answered entries as a reference point.
COc1cc2c(Nc3ccc(NC(=O)c4ccccc4)cc3)ncnc2cc1OCCCN1CCOCC1	< 5.40
CO[C@H]1C[C@@H]2CC[C@@H](C)[C@@](O)(O2)C(=O)C(=O)N2CCCC[C@H]2C(=O)O[C@H]([C@H](C)C[C@@H]2CC[C@@H](OC(=O)C(C)(CO)CO)[C@H](OC)C2)CC(=O)[C@H](C)/C=C(\C)[C@@H](O)[C@@H](OC)C(=O)[C@H](C)C[C@H](C)/C=C/C=C/C=C/1C [TEMSIROLIMUS]	7.39
CS(=O)(=O)c1ccc(C(=O)Nc2ccc(Cl)c(-c3ccccn3)c2)c(Cl)c1 [VISMODEGIB]	< 5.00

Requested read-out: pIC50. Entry: Cn1cnc2c(F)c(Nc3ccc(Br)cc3Cl)c(C(=O)NOCCO)cc21 [SELUMETINIB]
< 5.40

----------
System: CAS-1;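 note: growth inhibition of CAS-1 cells, measured with a cell viability assay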
assay_remarks: cells
Type: functional, cell-based, Homo sapiens
study_conditions: Homo sapiens, CAS-1
Description: SANGER: Inhibition of human CAS-1 cell growth in a cell viability assay.
Here the recorded IC50 is given for each entry.

CCN(CC)CCNC(=O)c1c(C)[nH]c(/C=C2\C(=O)Nc3ccc(F)cc32)c1C [SUNITINIB]	> 8 µM
Cc1ccc(-c2c(C(=O)CCl)n(CCCO)c3ncnc(N)c23)cc1	> 4 µM

With those in mind, consider the next compound.
What does the record list as IC50 for Cc1cn(-c2cc(NC(=O)c3ccc(C)c(Nc4nccc(-c5cccnc5)n4)c3)cc(C(F)(F)F)c2)cn1 [NILOTINIB] ?
> 2 µM

----------
Test system: NCI-H1304;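 note: growth inhibition of the cancer cell line, measured in a cell viability assay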
assay_remarks: cells
Format: functional, cell-based, Homo sapiens
study_conditions: Homo sapiens, NCI-H1304
Description: SANGER: Inhibition of human NCI-H1304 cell growth in a cell viability assay.
pIC50: −log10 of the molar value.
reported_property: pIC50

# example entries with known answers
Oc1ccc2ccccc2c1SSc1c(O)ccc2ccccc12	< 4.49
CC(=O)O[C@H]1C(=O)[C@@]2(C)[C@H]([C@H](OC(=O)c3ccccc3)[C@]3(O)C[C@H](OC(=O)[C@H](O)[C@@H](NC(=O)c4ccccc4)c4ccccc4)C(C)=C1C3(C)C)[C@]1(OC(C)=O)CO[C@@H]1C[C@@H]2O [PACLITAXEL]	7.28
COc1cc2ncn(-c3cc(OCc4ccccc4S(C)(=O)=O)c(C#N)s3)c2cc1OC [GSK-319347A]	< 5.30
C=C(c1ccc(C(=O)O)cc1)c1cc2c(cc1C)C(C)(C)CCC2(C)C [BEXAROTENE]	< 5.10

// below: pIC50 requested for another compound
Request the reported pIC50 associated with Nc1cccc2c1CN(C1CCC(=O)NC1=O)C2=O (stereo not drawn) [LENALIDOMIDE]
< 5.30

----------
Tested on: RMG-I
assay_remarks: cells
Assay type: functional, cell-based, Homo sapiens
study_conditions: Homo sapiens, RMG-I
Description: SANGER: Inhibition of human RMG-I cell growth in a cell viability assay.
Below: a set of entries, each annotated with reported IC50.

Here's what some known entries look like.
CC1(C)CNc2cc(NC(=O)c3cccnc3NCc3ccncc3)ccc21 [MOTESANIB]	> 2000 nM
Nc1cccc2c1CN(C1CCC(=O)NC1=O)C2=O (configuration not stated) [LENALIDOMIDE]	> 5000 nM
CC(C)c1ccccc1Cc1cc(C(=O)Nc2ccc(S(=O)(=O)c3ccccc3C(C)(C)C)cc2)c(O)c(O)c1O	207 nM
CCN(CC)CCCCNc1ncc2cc(-c3cc(OC)cc(OC)c3)c(NC(=O)NC(C)(C)C)nc2n1 [PD-173074]	> 2000 nM
C=C(c1ccc(C(=O)O)cc1)c1cc2c(cc1C)C(C)(C)CCC2(C)C [BEXAROTENE]	> 8000 nM

Record lookup: for RMG-I, what IC50 belongs to Oc1ccc2ccccc2c1SSc1c(O)ccc2ccccc12 ?
> 32000 nM

Also need CO[C@H]1C[C@@H]2CC[C@@H](C)[C@@](O)(O2)C(=O)C(=O)N2CCCC[C@H]2C(=O)O[C@H]([C@H](C)C[C@@H]2CC[C@@H](OC(=O)C(C)(CO)CO)[C@H](OC)C2)CC(=O)[C@H](C)/C=C(\C)[C@@H](O)[C@@H](OC)C(=O)[C@H](C)C[C@H](C)/C=C/C=C/C=C/1C [TEMSIROLIMUS] , thanks.
> 200 nM

----------
System: M14
assay_remarks: cells
Format: functional, cell-based, Homo sapiens
study_conditions: Homo sapiens, M14
Description: SANGER: Inhibition of human M14 cell growth in a cell viability assay.
pIC50: −log10 of the molar value.
Catalogue of pIC50 readings, one per entry.

Consider the worked cases shown below.
Nc1ccn([C@@H]2O[C@H](CO)[C@@H](O)C2(F)F)c(=O)n1	6.29
CC1(C)CNc2cc(NC(=O)c3cccnc3NCc3ccncc3)ccc21	< 5.70

// pIC50 lookup, key: C=C(c1ccc(C(=O)O)cc1)c1cc2c(cc1C)C(C)(C)CCC2(C)C
< 5.10

Further, for Nc1cccc2c1CN(C1CCC(=O)NC1=O)C2=O (stereo not drawn) [LENALIDOMIDE] ?
< 5.30

Next compound: COc1cc2c(Nc3ccc(NC(=O)c4ccccc4)cc3)ncnc2cc1OCCCN1CCOCC1
< 5.40

Now the same for CN(C)C(=N)NC(=N)N
< 1.70

Repeat with CCN(CC)CCCCNc1ncc2cc(-c3cc(OC)cc(OC)c3)c(NC(=O)NC(C)(C)C)nc2n1
< 5.70

How about this compound: Oc1ccc2ccccc2c1SSc1c(O)ccc2ccccc12
< 4.49

----------
Test system: ARH-77;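 note: growth inhibition of ARH-77 cells, read out by a cell viability assay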
assay_remarks: cells
Type: functional, cell-based, Homo sapiens
study_conditions: Homo sapiens, ARH-77
Description: SANGER: Inhibition of human ARH-77 cell growth in a cell viability assay.
Counter-ions that a name gives are not always drawn.
Listed here: items and their measured IC50.

Please review the entries below; each comes with its answer.
Nc1ccn([C@@H]2O[C@H](CO)[C@@H](O)C2(F)F)c(=O)n1	< 4 nM
COc1cc(N2CCN(C)CC2)ccc1Nc1ncc2c(n1)N(C)c1ccccc1C(=O)N2C	> 8000 nM
OCCCNc1cc(-c2ccnc(Nc3cccc(Cl)c3)n2)ccn1	81.9 nM
CCC/C=C/C=C/C(=O)O[C@H]1/C(=C/C(=O)OC)C[C@H]2C[C@H]([C@@H](C)O)OC(=O)C[C@H](O)C[C@@H]3C[C@H](OC(C)=O)C(C)(C)[C@](O)(C[C@@H]4C/C(=C/C(=O)OC)C[C@H](/C=C/C(C)(C)[C@]1(O)O2)O4)O3	> 8 nM
C#Cc1cccc(Nc2ncnc3cc(OCCOC)c(OCCOC)cc23)c1	> 2000 nM
COc1cccc2c1C(=O)c1c(O)c3c(c(O)c1C2=O)C[C@@](O)(C(=O)CO)C[C@@H]3O[C@H]1C[C@H](N)[C@H](O)[C@H](C)O1	110 nM
COc1cc(-c2nn([C@H]3CC[C@H](N4CCN(C(C)=O)CC4)CC3)c3ncnc(N)c23)ccc1NC(=O)c1cc2ccccc2n1C	> 5120 nM

For the next question, use this molecule.
For the molecule shown here, COC1=CC(c2cc3ccccc3[nH]2)=N/C1=C\c1[nH]c(C)cc1C [OBATOCLAX MESYLATE] , give the reported IC50.
110 nM

Data origin: ChEMBL document CHEMBL1201861
